Sourced from patent US20240391902A1

Test: Drug absorption test in male Han-Wister rats
Assay type: in vivo
Details: intragastric administration; doses 80, 100, 93.2, 81.1 mg/kg for Example 1, 2, 3, 4 (calculated based on free base)
Experimental: Intravenous administration: Three healthy male Han-Wister rats having a body weight of 250-350 g were provided by Beijing Vital River Laboratory Animal Technology Co., Ltd. The above compound of Example 1 was administered intravenously at the doses (calculated based on free base) listed in Table 1 below, respectively. […]
readout kind: AUC0-t (µg·h/mL)

>>> value_observed("C=CC(=O)Nc1cc(Nc2ncnc(-c3cn(C)c4ccccc34)n2)c(OC)cc1N(C)CCN(C)C [Example 4]")
9.703
>>> value_observed("C=CC(=O)Nc1cc(Nc2ncnc(-c3cn(C)c4ccccc34)n2)c(OC)cc1N(C)CCN(C)C [Example 1]")
3.968
>>> value_observed("C=CC(=O)Nc1cc(Nc2ncnc(-c3cn(C)c4ccccc34)n2)c(OC)cc1N(C)CCN(C)C [Example 2]")
13.06
>>> value_observed("C=CC(=O)Nc1cc(Nc2ncnc(-c3cn(C)c4ccccc34)n2)c(OC)cc1N(C)CCN(C)C [Example 3]")
11.213
